What solubility was measured for each of the following?
# Test description: Solubility test
# Assay type: physicochemical
# Test parameters: aqueous buffer, thermodynamic from solid; 10 mmol/L glycine buffer (pH 2.0), 5° C., overnight; read-out: Solubility in pH 2.0 buffer

> print(dat)
                                   molecule  observable         result
1  CC(C)n1cc(-c2ccc3c(c2)[C@H](F)C[C@]32NC(=O)N(CC(=O)N(Cc3ccc(F)cn3)C3(C(F)(F)F)CN(C)C3)C2=O)cn1  solubility  > 10000 µg/mL
2  CN1CC(N(Cc2ccc(F)cn2)C(=O)CN2C(=O)N[C@]3(C[C@@H](F)c4cc(-c5cnn(C6CCC6)c5)ccc43)C2=O)(C(F)(F)F)C1  solubility  > 10000 µg/mL
3  CCn1cc(-c2ccc3c(c2)[C@H](F)C[C@]32NC(=O)N(CC(=O)N(Cc3ccc(F)cn3)C3(C(F)(F)F)CN(C)C3)C2=O)cn1  solubility  > 10000 µg/mL
4  CC(C)n1cc(-c2ccc3c(c2)[C@H](F)C[C@]32NC(=O)N(CC(=O)N(Cc3ccc(F)cc3)C3(C(F)(F)F)CN(C)C3)C2=O)cn1  solubility     7100 µg/mL
5  O=C1N[C@]2(C[C@@H](F)c3cc(-c4cnn(C5CN(C6COC6)C5)c4)ccc32)C(=O)N1CC(=O)N(Cc1ccc(F)cn1)C1(C(F)(F)F)COC1  solubility  > 10000 µg/mL

Q: # input compound: CN1CC(N(Cc2ccc(F)cn2)C(=O)CN2C(=O)N[C@]3(C[C@@H](F)c4cc(-c5cnn(C)c5)ccc43)C2=O)(C(F)(F)F)C1 ; wanted: its solubility
Result: > 10000 µg/mL

====

# Assayed system: recombinant p300 (Homo sapiens (Human), UniProt Q09472)
# Sequence (Q09472 whole entry): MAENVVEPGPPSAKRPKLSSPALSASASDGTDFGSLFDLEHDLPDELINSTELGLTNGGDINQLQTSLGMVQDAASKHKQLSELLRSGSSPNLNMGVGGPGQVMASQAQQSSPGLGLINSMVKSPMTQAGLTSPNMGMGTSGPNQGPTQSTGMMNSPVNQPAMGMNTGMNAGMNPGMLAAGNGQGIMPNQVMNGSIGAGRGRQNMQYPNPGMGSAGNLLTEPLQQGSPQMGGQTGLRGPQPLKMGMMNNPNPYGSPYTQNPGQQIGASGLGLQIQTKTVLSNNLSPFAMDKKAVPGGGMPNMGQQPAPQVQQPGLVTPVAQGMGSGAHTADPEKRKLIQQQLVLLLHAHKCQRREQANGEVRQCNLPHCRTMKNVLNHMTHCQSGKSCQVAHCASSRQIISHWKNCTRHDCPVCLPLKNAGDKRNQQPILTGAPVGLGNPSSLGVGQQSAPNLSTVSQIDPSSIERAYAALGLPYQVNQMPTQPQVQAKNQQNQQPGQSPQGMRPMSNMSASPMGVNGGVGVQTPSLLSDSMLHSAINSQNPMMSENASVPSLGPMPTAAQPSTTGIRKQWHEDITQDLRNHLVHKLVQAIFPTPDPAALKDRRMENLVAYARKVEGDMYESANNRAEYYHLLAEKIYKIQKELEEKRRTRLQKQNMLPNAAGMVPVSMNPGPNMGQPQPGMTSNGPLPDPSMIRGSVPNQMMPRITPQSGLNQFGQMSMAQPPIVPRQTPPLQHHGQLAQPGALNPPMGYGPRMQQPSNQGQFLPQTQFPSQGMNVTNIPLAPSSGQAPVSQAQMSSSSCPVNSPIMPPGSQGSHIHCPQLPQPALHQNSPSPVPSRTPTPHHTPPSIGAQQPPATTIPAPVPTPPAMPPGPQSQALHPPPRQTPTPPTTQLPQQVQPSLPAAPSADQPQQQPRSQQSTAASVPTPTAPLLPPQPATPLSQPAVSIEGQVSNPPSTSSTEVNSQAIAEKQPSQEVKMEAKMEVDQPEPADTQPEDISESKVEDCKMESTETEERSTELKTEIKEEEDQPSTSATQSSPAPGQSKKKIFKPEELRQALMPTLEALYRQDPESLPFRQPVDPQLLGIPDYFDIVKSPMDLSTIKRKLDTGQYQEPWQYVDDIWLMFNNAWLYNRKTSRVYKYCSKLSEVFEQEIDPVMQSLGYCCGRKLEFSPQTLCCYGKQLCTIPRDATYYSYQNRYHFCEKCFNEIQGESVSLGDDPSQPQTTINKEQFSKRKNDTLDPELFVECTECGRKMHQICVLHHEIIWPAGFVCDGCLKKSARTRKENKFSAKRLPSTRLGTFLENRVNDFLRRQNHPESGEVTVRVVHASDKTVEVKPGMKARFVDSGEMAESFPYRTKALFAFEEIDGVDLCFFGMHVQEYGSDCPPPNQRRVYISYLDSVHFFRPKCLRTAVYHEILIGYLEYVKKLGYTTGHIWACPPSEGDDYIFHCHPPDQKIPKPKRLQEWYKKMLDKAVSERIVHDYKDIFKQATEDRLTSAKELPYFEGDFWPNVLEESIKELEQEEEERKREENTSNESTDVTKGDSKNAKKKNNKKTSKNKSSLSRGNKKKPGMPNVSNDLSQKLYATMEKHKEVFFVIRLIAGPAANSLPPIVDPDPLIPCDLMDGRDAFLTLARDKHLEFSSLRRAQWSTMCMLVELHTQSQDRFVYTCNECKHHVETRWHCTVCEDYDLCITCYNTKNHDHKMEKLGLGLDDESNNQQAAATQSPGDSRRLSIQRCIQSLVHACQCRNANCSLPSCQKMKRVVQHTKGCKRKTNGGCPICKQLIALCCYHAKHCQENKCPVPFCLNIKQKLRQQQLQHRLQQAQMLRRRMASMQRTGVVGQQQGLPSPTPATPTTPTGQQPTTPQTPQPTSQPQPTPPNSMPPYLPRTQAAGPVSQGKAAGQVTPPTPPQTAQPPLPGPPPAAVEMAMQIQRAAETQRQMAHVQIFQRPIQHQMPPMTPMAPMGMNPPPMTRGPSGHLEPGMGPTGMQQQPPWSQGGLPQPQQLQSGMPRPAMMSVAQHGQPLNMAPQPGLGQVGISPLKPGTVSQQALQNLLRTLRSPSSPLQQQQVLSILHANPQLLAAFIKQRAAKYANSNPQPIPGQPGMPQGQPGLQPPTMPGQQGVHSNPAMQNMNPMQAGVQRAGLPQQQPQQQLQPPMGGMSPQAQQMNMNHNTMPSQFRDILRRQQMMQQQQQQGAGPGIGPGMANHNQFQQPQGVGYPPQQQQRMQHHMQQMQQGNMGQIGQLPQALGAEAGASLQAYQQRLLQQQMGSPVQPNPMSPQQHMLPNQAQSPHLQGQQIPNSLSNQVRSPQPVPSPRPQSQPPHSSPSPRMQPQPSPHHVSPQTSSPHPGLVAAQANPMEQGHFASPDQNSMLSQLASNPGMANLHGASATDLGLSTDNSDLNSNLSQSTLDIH
# Test description: HAT activity inhibition experiment (SensoLyte HAT(p300) Assay Kit)
# Test parameters: recombinant p300, histone H3 peptide, acetyl CoA
Observable: pIC50
Give bare numbers, as −log10 of the molar value.

> print(dat)
                                   compound  recorded.number
1  CN1CC(N(Cc2ccc(C(F)(F)F)cc2)C(=O)CN2C(=O)N[C@]3(C[C@@H](F)c4cc(-c5cnn(C)c5)ccc43)C2=O)(C(F)(F)F)C1 [Example 35]             8.28
2  CN1CC(N(Cc2ccc(F)cc2)C(=O)CN2C(=O)N[C@]3(C[C@@H](F)c4cc(-c5cnn(C)c5)c(F)cc43)C2=O)(C(F)(F)F)C1 [Example 29]             8.55
3  CN1CC(N(Cc2ccc(F)cc2)C(=O)CN2C(=O)N[C@]3(CCc4cc(-c5cnn(C)c5)ccc43)C2=O)(C(F)(F)F)C1 [Example 12]             8.20
4  CN1CC(N(Cc2ccc(F)cn2)C(=O)CN2C(=O)N[C@]3(C[C@@H](F)c4cc(-c5cnn(C6CCC6)c5)ccc43)C2=O)(C(F)(F)F)C1 [Example 34]             9.70

In the following, a different compound is considered.
Q: # input compound: CN1CC(N(Cc2ccc(F)cn2)C(=O)CN2C(=O)N[C@]3(C[C@@H](F)c4cc(-c5cnn(C)c5)ccc43)C2=O)(C(F)(F)F)C1 [Example 20] ; wanted: its pIC50
Result: 8.77

====

Kindly supply the reported BA values for the records listed here.
# Test description: Pharmacokinetic study in mice
# Format: in vivo
# Test parameters: oral, 10 mg/kg
One number for each entry, in %.

Field: example entries. Status: answers known.
> print(dat)
                                   molecule  observable  recorded.number
1  CN1CC(N(Cc2ccc(F)cc2)C(=O)CN2C(=O)N[C@]3(C[C@@H](F)c4cc(-c5cnn(C)c5)ccc43)C2=O)(C(F)(F)F)C1          BA             70.8
2  CN1CC(N(Cc2ccc(F)cn2)C(=O)CN2C(=O)N[C@]3(C[C@@H](F)c4cc(-c5cnn(CC6COC6)c5)ccc43)C2=O)(C(F)(F)F)C1          BA             19.6

# next molecule below
Q: So what does the record say about BA for CN1CC(N(Cc2ccc(F)cn2)C(=O)CN2C(=O)N[C@]3(C[C@@H](F)c4cc(-c5cnn(C)c5)ccc43)C2=O)(C(F)(F)F)C1 ?
Result: 28.8

====

# Test description: Pharmacokinetic study in mice
# Format: in vivo
# Test parameters: oral, 10 mg/kg
Can you tell me BA for the items I'm about to list?
Answers are plain numbers, in %.

> print(dat)
                                   molecule  observable  value.unit  recorded.number
1  CN1CC(N(Cc2ccc(F)cn2)C(=O)CN2C(=O)N[C@]3(C[C@@H](F)c4cc(-c5cnn(C6COC6)c5)ccc43)C2=O)(C(F)(F)F)C1          BA           %             47.0

Please state BA for every compound in the list that follows.
1. O=C1N[C@]2(C[C@@H](F)c3cc(-c4cnn(C5CN(C6COC6)C5)c4)ccc32)C(=O)N1CC(=O)N(Cc1ccc(F)cn1)C1(C(F)(F)F)COC1
2. O=C1N[C@]2(C[C@@H](F)c3cc(-c4cnn(C5CCN(C6COC6)CC5)c4)ccc32)C(=O)N1CC(=O)N(Cc1ccc(F)cn1)C1(C(F)(F)F)COC1

Result:
100.6
49.7

====

# Test description: Membrane permeability test (PAMPA)
# Format: in vitro ADME
# Test parameters: pH 5.0, 37° C., read-out: pH 5.0 Pe
Provide the recorded Papp at 4 h for the entries that follow.
Please answer using the number first and the unit second.

Below, 2 compounds whose answers are already recorded.
> print(dat)
                                   molecule           result
1  CCn1cc(-c2ccc3c(c2)[C@H](F)C[C@]32NC(=O)N(CC(=O)N(Cc3ccc(F)cc3)C3(C(F)(F)F)CN(C)C3)C2=O)cn1  30.6 ×10⁻⁶ cm/s
2  CN1CC(N(Cc2ccc(F)cn2)C(=O)CN2C(=O)N[C@]3(C[C@@H](F)c4cc(-c5cnn(C6COC6)c5)ccc43)C2=O)(C(F)(F)F)C1   1.6 ×10⁻⁶ cm/s

Q: Could you tell me which Papp at 4 h is on file for O=C1N[C@]2(CCc3cc(-c4cnn(C5CN(C6COC6)C5)c4)ccc32)C(=O)N1CC(=O)N(Cc1ccc(F)cn1)C1(C(F)(F)F)CC(F)(F)C1 ?
Result: 13.5 ×10⁻⁶ cm/s

====

# Test description: Pharmacokinetic study in mice
# Type: in vivo
# Test parameters: oral, 10 mg/kg
Assign BA to each entry below.
Answers are plain numbers, in %.

Below, 3 compounds whose answers are already recorded.
> print(dat)
                                   molecule  value.unit  recorded.number
1  O=C1N[C@]2(C[C@@H](F)c3cc(-c4cnn(C5CN(C6COC6)C5)c4)ccc32)C(=O)N1CC(=O)N(Cc1ccc(F)cc1)C1(C(F)(F)F)CC(F)(F)C1           %            136.3
2  CN1CC(N(Cc2ccc(F)cc2)C(=O)CN2C(=O)N[C@]3(CCc4cc(-c5cnn(C)c5)ccc43)C2=O)(C(F)(F)F)C1           %             30.0
3  CN1CC(N(Cc2ccc(F)cc2)C(=O)CN2C(=O)N[C@]3(C[C@@H](F)c4cc(-c5cnn(C(C)(C)C#N)c5)ccc43)C2=O)(C(F)(F)F)C1           %             56.2

Q: GET /values?readout=BA&item= O=C1N[C@]2(CCc3cc(-c4cnn(C5CN(C6COC6)C5)c4)ccc32)C(=O)N1CC(=O)N(Cc1ccc(F)cc1)C1(C(F)(F)F)COC1
Result: 75.7

====

# Assayed system: hDAT (Homo sapiens (Human), UniProt Q01959)
# Sequence (Q01959 whole entry): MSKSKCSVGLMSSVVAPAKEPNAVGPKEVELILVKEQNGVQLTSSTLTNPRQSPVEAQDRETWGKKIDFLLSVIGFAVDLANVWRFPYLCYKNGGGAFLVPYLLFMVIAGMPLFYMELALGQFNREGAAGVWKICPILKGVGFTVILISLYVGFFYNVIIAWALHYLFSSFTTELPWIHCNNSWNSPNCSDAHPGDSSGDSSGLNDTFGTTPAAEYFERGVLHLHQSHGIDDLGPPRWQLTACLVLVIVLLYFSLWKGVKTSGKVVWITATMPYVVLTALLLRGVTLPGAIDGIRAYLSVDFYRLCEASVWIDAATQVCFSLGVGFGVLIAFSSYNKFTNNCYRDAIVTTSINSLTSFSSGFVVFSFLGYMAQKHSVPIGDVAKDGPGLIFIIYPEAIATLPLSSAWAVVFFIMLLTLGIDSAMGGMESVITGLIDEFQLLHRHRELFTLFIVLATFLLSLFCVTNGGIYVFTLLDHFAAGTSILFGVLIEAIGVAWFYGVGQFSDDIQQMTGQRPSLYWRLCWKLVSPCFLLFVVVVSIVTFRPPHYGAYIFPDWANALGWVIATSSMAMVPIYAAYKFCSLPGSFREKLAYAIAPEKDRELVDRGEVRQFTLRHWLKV
# Test description: Dopamine receptor inhibitory activity evaluation (binding assay, CHO-S/hDAT membranes)
# Test parameters: CHO-S/hDAT membrane preparation
Observable: inhibition at 10 µM (%)
Answers are plain numbers, in %.

Worked examples follow.
> print(dat)
                                   molecule           observable  value.unit  recorded.number
1  CN1CC(N(Cc2ccc(F)cn2)C(=O)CN2C(=O)N[C@]3(C[C@@H](F)c4cc(-c5cnn(C)c5)ccc43)C2=O)(C(F)(F)F)C1 [Example 20]  inhibition at 10 µM           %               46
2  CN1CC(N(Cc2ccc(F)cn2)C(=O)CN2C(=O)N[C@]3(C[C@@H](F)c4cc(-c5cnn(CC6COC6)c5)ccc43)C2=O)(C(F)(F)F)C1 [Example 25]  inhibition at 10 µM           %                9
3  O=C1N[C@]2(C[C@@H](F)c3cc(-c4cnn(C5CCN(C6COC6)CC5)c4)ccc32)C(=O)N1CC(=O)N(Cc1ccc(F)cn1)C1(C(F)(F)F)COC1 [Example 23]  inhibition at 10 µM           %                7

Batch: inhibition at 10 µM for all items listed.
1. CN1CC(N(Cc2ccc(F)cc2)C(=O)CN2C(=O)N[C@]3(C[C@@H](F)c4cc(-c5cnn(C)c5)ccc43)C2=O)(C(F)(F)F)C1 [Example 10]
2. CN1CC(N(Cc2ccc(F)cn2)C(=O)CN2C(=O)N[C@]3(C[C@@H](F)c4cc(-c5cnn(C6COC6)c5)ccc43)C2=O)(C(F)(F)F)C1 [Example 24]
3. O=C1N[C@]2(C[C@@H](F)c3cc(-c4cnn(C5CN(C6COC6)C5)c4)ccc32)C(=O)N1CC(=O)N(Cc1ccc(F)cn1)C1(C(F)(F)F)COC1 [Example 7]

Result:
1. 6
2. 6
3. 7
